Target: dopamine transporter (DAT) (Rattus norvegicus (Rat), UniProt P23977)
Sequence (P23977 whole entry): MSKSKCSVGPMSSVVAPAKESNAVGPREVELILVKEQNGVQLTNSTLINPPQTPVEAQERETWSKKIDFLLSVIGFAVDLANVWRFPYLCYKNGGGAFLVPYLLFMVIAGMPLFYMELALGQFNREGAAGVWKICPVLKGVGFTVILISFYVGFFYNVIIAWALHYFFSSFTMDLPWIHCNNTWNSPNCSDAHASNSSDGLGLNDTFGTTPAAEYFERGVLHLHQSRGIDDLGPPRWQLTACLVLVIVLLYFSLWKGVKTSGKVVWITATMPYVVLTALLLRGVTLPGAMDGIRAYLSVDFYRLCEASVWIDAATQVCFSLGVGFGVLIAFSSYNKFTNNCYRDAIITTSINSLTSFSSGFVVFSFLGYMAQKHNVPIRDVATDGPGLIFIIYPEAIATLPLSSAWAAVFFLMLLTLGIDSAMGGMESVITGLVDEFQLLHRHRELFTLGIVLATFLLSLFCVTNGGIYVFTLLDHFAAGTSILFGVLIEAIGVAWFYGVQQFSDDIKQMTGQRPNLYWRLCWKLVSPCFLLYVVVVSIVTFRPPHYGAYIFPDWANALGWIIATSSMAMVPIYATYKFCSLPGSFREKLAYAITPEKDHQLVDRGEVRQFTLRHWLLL
Assay: [3H]dopamine (DA) uptake inhibition in rat brain (caudate) synaptosomes
Format: biochemical
Conditions: values in Table 9; read-out: Emax for DAT Uptake Inhibition
Description: Uptake inhibition assay for the dopamine transporter was conducted in rat brain synaptosomes as described elsewhere with minor modifications (Rothman et al., Synapse 39, 32-41 (2001)). Freshly removed caudate was homogenized in 10% ice-cold sucrose with 12 strokes of a hand-held Potter-Elvehjem homogenizer followed by centrifugation at 1000×g for 10 min. […] Transporter activity was assessed using 5 nM [^3H]dopamine. […] Nonspecific uptake was measured by incubating in the presence of 10 μM indatraline. […]
measured_property: Emax (%)
// note: answer is a bare numeric in %

Input CN(C)c1ncc(-c2nc(NCC(c3ccccc3)c3ccccc3)c3ccccc3n2)cn1 [SRI-29153] , output reported Emax. 73

Input CN(C)c1ncc(-c2nc(NCCC(c3ccccc3)c3ccccc3)c3ccccc3n2)cn1 [SRI-29212] , output reported Emax. 67

Input CN(C)c1ccc(-c2nc(NCC(c3ccccc3)c3ccccc3)c3ccccc3n2)cc1 [Compound 51] , output reported Emax. 70

Input c1ccc(C(CNc2nc(-c3cnc4nccn4c3)nc3ccccc23)C2CCCCC2)cc1 (stereo not shown) [SRI-30517] , output reported Emax. 70

###

measured_property: pIC50
The value called pIC50 is obtained by taking minus log10 of the concentration in mol/L.

For DAT (Rattus norvegicus (Rat)), give pIC50 of the listed compound: c1ccc(C(CNc2nc(-c3ccc4[nH]ccc4c3)nc3ccccc23)c2ccccc2)cc1 [SRI-29155] 6.05

For DAT (Rattus norvegicus (Rat)), give pIC50 of the listed compound: CNc1ncc(-c2nc(NCC(c3ccccc3)c3ccccc3)c3ccccc3n2)cn1 [SRI-29554] 6.01

For DAT (Rattus norvegicus (Rat)), give pIC50 of the listed compound: Cc1cc2nccn2cc1-c1nc(NCC(c2ccccc2)c2ccccc2)c2ccccc2n1 [SRI-30827] 5.70

For DAT (Rattus norvegicus (Rat)), give pIC50 of the listed compound: c1ccc(C(CNc2nc(-c3cnc4nccn4c3)nc3ccccc23)C2CCCCC2)cc1 (stereo not shown) [SRI-30517] 6.80

For DAT (Rattus norvegicus (Rat)), give pIC50 of the listed compound: CS(=O)(=O)Nc1ccc(-c2nc(NCC(O)(c3ccccc3)c3ccccc3)c3ccccc3n2)cc1 [Compound 4] 6.01

For DAT (Rattus norvegicus (Rat)), give pIC50 of the listed compound: c1ccc(C(CNc2nc(-c3ccc4nccn4c3)nc3ccccc23)C2CCCCC2)cc1 (stereo not shown) [SRI-30513] 5.53

For DAT (Rattus norvegicus (Rat)), give pIC50 of the listed compound: c1ccc(C(CNc2nc(-c3cnc4nccn4c3)nc3ccccc23)c2ccncc2)cc1 (stereo not shown) [SRI-30810] 6.09

For DAT (Rattus norvegicus (Rat)), give pIC50 of the listed compound: CSc1ncc(-c2nc(NCC(c3ccccc3)c3ccccc3)c3ccccc3n2)cn1 [SRI-29338] 5.93

For DAT (Rattus norvegicus (Rat)), give pIC50 of the listed compound: CN(C)c1ncc(-c2nc(NCCC(c3ccccc3)c3ccccc3)c3ccccc3n2)cn1 [SRI-29212] 5.66

For DAT (Rattus norvegicus (Rat)), give pIC50 of the listed compound: CN(C)c1ncc(-c2nc(NCC(O)(c3ccccc3)c3ccccc3)c3ccccc3n2)cn1 [SRI-29982] 5.61
